Biological target: T1, Processed stabilized hMPV PreF trimer (115BV) (human metapneumovirus, strain B2)
T1 construct: also called Processed hMPV PreF trimer; processed PreF
Test: BLI, mAb on anti-human Fc sensor
measured property: Octet binding response (nm)
Record the value in nm, omitting the unit from your answer.

Return reported Octet binding response; argument: M2E11L (antibody, V domains shown) VH: QVQLVQSGAIMKKPGSSVKVSCKASGGTFTNFAFSWVRQAPGQGLEWMGGIIPFVGPANYAPQFQGRVTITADESTTTAYMELNSLRSEDTAVYYCARVRGFGETAYFYHYYMDVWGKGTTVTVSS VL: QTVVTQEPSLSVSPGGTVTLTCGLSSGSVSTSHFPSWYQQIPGQPPRTLIYSTITRSSGVPDRFSGSILGNKATLTITGAQADDECDYYCVLYLGGGIPHWVFGGGTKLTVL
0.162

Which Octet binding response reading was recorded for the binder M2D11 (antibody, V domains shown, IgG) VH: QVQLQQWGAGLLKPSETLSLTCAVSGGSFSGYHWTWIRQPPGKGLEWIGEVDHGGNTNYNPSLMSRVTISVDMSTKQFSLRLTSMTAADTAVYYCARGFGVVINNWFDPWGQGTLVTVTS VL: DIQMTQSPSSLSASVGDRVTITCRASQTISSYLNWYQQKPGKAPNLLIYTVSTLQSGVPSRFSGSGSGTDFTLTISSLQPEDFATYYCQQSYGAPYTFGQGTKLEIK ?
0.436

I would be grateful if you could share the reported Octet binding response for M4B03 (antibody, V domains shown, IgG) VH: QVQLVQSGAEVKKPGASVKVSCKASGYIFSNYRMHWVRQAPGQRLEWMGWITAGSGNTRYSEQFQGRVAFTSDTDATTVSMELSGLRFEDTAVYFCAREYNWNDAFPYWGQGTLVIVSS VL: SYVLTQPPSVSVAPGQTARIPCGGNNIGSKSVHWYQQKSGRAPVLVVYDDSDRPPGIPDRFSGSNSGNTATLTINKIEAGDEADYYCHVSDDNSDHVFFGGGTQLTVL .
0.108

Reported Octet binding response for M2C05 (antibody, V domains shown, IgG) VH: EVQLLESGGGLVQPGGSLRLSCAGSGFTFSNYAMSWVRQAPGKGLEWVSDINDRGETTHYADSVKGRFTISRDNSKKKLFLQMNDLRAEDTAIYYCTRAYVVLSVYAPKGFDYWGQGTLVSVSS VL: DIQMTQSPSILSASEGDRVTITCRASQSVSNWLAWYQQKSGRAPKLLIYKASSLETGVPSRFSGSGSGTEFTLTINNLQPDDFATYYCQHYNGYPYTFGQGTKLEIK : what is it?
0.464

// Octet binding response lookup, key: M2B11 (antibody, V domains shown, IgG) VH: QVQLVQSGTEVKKPGASVKVSCKASGYTFTSHDINWLRQATGQGLEWLGWMNPNSATTGYAQKFQGRVTLTRDISISTAYMELSSLRSDDTAVYYCARNRHYYYADGPTRDAFDIWGQGTVVTVSS VL: SYELTQTPTVSVSPGQTASITCSGDELGHKYTSWYQQKPGQSPVLVVYQDTKRPSGIPERFSGSNSGNTATLTISGTQVMDEADYYCQAWDSGTVLLGGGTKLTVL
0.498

I have this binder here, M2A06 (antibody, V domains shown, IgG) VH: QVQLVQSGAEVKKPGASVKISCKASGYSFSNYYIQWVRQAPGQGLEWLGIINPSGGSTDYAQKFEGRVSMTRDTSTNTVYMEMSSLRSEDTASYYCVRSLANGSGSPWGQGTLVIVSS VL: DIQMTQSPSTLSASVGDRVTITCRASQSISSRLAWYQQKPGKAPNLLLYDASRSESGVPSRFSGSGSGTEFTLTISSLQPDDVATYYCQHYSIYSRWTFGQGTKVEIK , and I need its recorded Octet binding response.
0.052

Octet binding response for M2D03 (antibody, V domains shown, IgG) VH: QVQLQESGPGLVAPSQTLSLICDVSGDSVTSGAHSWSWIRQHPVKGLEWIAYINYSGRTNYNPSLQSRLVISVDRSKNQFSLRLSSVTAADTAVYYCARANVVGYSGYYFDYWGQGTLVAVSS VL: DIQMTQSPSSLSASVGDRVTITCRASQSVGAYLNWYQQKPGKAPKLLIFAGSSLQTGVPSRFSGRGSRTEFTLTISNLQREDFATYYCQQSLGDFLTFGGGTKVEIK ?
0.466

I have this binder here, M3C04 (antibody, V domains shown, IgG) VH: EVQLVQSGAEVKKPGESLKISCKGSGYNFANYWIGWVRQMPGKGLEWMGIIYPGDSDTRRNPSFQGHVTMSVDQSISTAYLQWSSLKASDTAMYYCARPLAVSAFDIWGQGTMVTVSS VL: DIQMTQSPSSLSASVGDKLTITCRASQSISNYLNWYQQKSGKAPKLLIYAASSLQSGVPSRFSGSGSGTDFTLTISSLQPEDFATYYCQQSASTPHTFGQGTKVEIV , and I need its recorded Octet binding response.
0.31

Could you share which Octet binding response value was measured for M2E05 (antibody, V domains shown, IgG) VH: QVQLQESGPGLVKPSEILSLTCTVSRYSINSGYYWGWIRQPPGKGLEWVGCVSHAGVTYYNPSLESRVAVSLDTSKNQFSLKMTSVSAADTAMYYCAASSNWHNALEYWGQGTLVAVSS VL: QSVLTQPPSASGTPGQSVTISCSGSSSNMGINWVYWYQQLPGTAPKLLIYRNSQRPSGVPDRFSGSQSGTSASLAISGLRSEDEGHYYCAVWDDVVSGRLFGGGTKLTVL ?
0.228

Field request: Octet binding response | item: M2A02 (antibody, V domains shown, IgG) VH: QVQLVQSGAEVKRPGSSVKVSCKASGDIFSSHAISWVRQTPGQGLKWMGRIIPLVGIRNYAQDLQGRVTISADKSINTVYMELTNLRFDDTAVYYCARDRTDWSGGLDIWGQGTRVTVSS VL: EIVLTQSPATLSLSPGERATLSCRASQRIGSYLAWYQQKPGQAPRLLIYDASNRATGIPARFSGSGSGTDFTLTISRLEPEDSAIYYCQQRTDWFTFGGGTKVEIK
0.0795

Data credit: patent US20240327502A1
